# system: human ROR1 (Homo sapiens)
# Construct: host or cells: HEK 293T cells, Tet-on system induced with doxycycline
# protocol: ROR1 high content cell-based binding assay
# test-context: read-out: ROR1 Binding 293T Human HC Cell Based Assay IC50
Positions of bridges follow the written chain, without caps; N, C: chain ends. Non-standard residues stand in square brackets, D forms with d. Residues, ends and D or L forms follow the SMILES beside them. NMeF = CN[C@@H](Cc1ccccc1)C(=O)O
endpoint-name: log10(IC50) (log10 of the value in nM)
Values are log10 of IC50 in nM.

Enquiry: What value of log10(IC50) has been reported for the following compound? CC(C)C[C@@H]1NC(=O)[C@H](Cc2ccc(O)cc2)NC(=O)[C@H](CCC(N)=O)NC(=O)CSC[C@@H](C(=O)NCC(N)=O)NC(=O)[C@H](CC(C)C)NC(=O)[C@H](Cc2ccccc2)N(C)C(=O)[C@H](Cc2ccc(O)cc2)NC(=O)[C@H](Cc2c[nH]c3ccccc23)NC(=O)CNC(=O)[C@H](CO)NC(=O)[C@H](Cc2ccc(O)cc2)NC(=O)[C@H](C(C)C)NC1=O [Example 1088] ({CH2CO}-QYLVYSGWY[NMeF]LCG-NH2; thioether N-12)
Return: 1.92

Enquiry: What value of log10(IC50) has been reported for the following compound? CC(C)C[C@@H]1NC(=O)[C@H](Cc2ccc(O)cc2)NC(=O)[C@H](Cc2ccccc2)NC(=O)CSC[C@@H](C(=O)NCC(N)=O)NC(=O)[C@H](C)NC(=O)[C@H](Cc2ccccc2)N(C)C(=O)[C@H](Cc2ccc(O)cc2)NC(=O)[C@H](Cc2c[nH]c3ccccc23)NC(=O)CNC(=O)[C@H](CO)NC(=O)[C@H](Cc2ccc(O)cc2)NC(=O)[C@H](C(C)C)NC1=O [Example 1042] ({CH2CO}-FYLVYSGWY[NMeF]ACG-NH2; thioether N-12)
Return: 1.49

* * *

# system: human ROR1 (Homo sapiens, UniProt Q01973)
# Construct: host or cells: HEK 293T cells, Tet-on system induced with doxycycline
# Sequence (Q01973 30-937): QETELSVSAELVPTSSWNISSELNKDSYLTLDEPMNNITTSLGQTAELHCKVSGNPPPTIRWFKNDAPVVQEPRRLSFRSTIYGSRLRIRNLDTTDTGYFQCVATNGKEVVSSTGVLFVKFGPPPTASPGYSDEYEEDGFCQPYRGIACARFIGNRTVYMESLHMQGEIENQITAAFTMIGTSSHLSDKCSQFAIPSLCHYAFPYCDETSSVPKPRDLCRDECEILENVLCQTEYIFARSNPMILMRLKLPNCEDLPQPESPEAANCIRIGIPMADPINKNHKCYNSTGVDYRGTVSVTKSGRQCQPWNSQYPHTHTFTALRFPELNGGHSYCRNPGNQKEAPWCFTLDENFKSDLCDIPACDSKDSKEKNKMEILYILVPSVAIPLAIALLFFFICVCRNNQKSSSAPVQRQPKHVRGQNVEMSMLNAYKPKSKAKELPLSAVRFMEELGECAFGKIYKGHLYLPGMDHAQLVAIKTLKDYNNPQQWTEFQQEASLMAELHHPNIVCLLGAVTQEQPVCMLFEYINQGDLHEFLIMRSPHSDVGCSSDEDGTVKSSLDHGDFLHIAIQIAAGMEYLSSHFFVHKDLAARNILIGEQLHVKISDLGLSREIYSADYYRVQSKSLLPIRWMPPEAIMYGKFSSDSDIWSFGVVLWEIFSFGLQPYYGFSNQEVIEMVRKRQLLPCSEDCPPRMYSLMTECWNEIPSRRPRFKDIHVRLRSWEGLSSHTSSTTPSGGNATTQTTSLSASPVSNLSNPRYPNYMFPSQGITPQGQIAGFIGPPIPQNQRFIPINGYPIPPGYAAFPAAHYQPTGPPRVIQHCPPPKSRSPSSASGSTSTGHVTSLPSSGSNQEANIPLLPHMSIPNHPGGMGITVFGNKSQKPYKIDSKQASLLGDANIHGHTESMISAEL
# protocol: ROR1 high content cell-based binding assay
# test-context: read-out: ROR1 Binding 293T Human HC Cell Based Assay IC50
Positions of bridges follow the written chain, without caps; N, C: chain ends. Non-standard residues stand in square brackets, D forms with d. Residues, ends and D or L forms follow the SMILES beside them. NMeF = CN[C@@H](Cc1ccccc1)C(=O)O
Param label: returns condition met when IC50 < 50 nM, returns condition not met otherwise, including exact equality.

compound	classification
CC(C)C[C@@H]1NC(=O)[C@H](Cc2ccccc2)NC(=O)[C@H](Cc2ccccc2)N(C)C(=O)CNC(=O)[C@H](Cc2ccc(O)cc2)NC(=O)[C@H](Cc2ccccc2)NC(=O)CSC[C@@H](C(N)=O)NC(=O)[C@H](Cc2c[nH]c3ccccc23)NC(=O)[C@H](Cc2ccc(O)cc2)NC1=O [Example 1102] ({CH2CO}-FYG[NMeF]FLYWC-NH2; thioether N-9)	condition not met
CC(C)C[C@@H]1NC(=O)[C@H](Cc2ccc(O)cc2)NC(=O)[C@H](Cc2ccccc2)NC(=O)CSC[C@@H](C(=O)NCC(N)=O)NC(=O)[C@H](CC(C)C)NC(=O)[C@H](Cc2ccccc2)N(C)C(=O)[C@H](Cc2ccc(O)cc2)NC(=O)[C@H](Cc2c[nH]c3ccccc23)NC(=O)CNC(=O)[C@H](CCC(N)=O)NC(=O)[C@H](Cc2ccc(O)cc2)NC(=O)[C@H](C(C)C)NC1=O [Example 1016] ({CH2CO}-FYLVYQGWY[NMeF]LCG-NH2; thioether N-12)	condition met
CC(C)C[C@@H]1NC(=O)[C@H](Cc2c[nH]c3ccccc23)NC(=O)[C@H](Cc2ccccc2)NC(=O)[C@H](Cc2c[nH]c3ccccc23)NC(=O)CNC(=O)CNC(=O)[C@H](CC(C)C)NC(=O)[C@H](C(C)C)NC(=O)[C@H](CC(C)C)NC(=O)[C@H](Cc2ccc(O)cc2)NC(=O)[C@H](Cc2ccccc2)NC(=O)CSC[C@@H](C(=O)NCC(N)=O)NC1=O [Example 1010] ({CH2CO}-FYLVLGGWFWLCG-NH2; thioether N-12)	condition not met

Lab note: next compound to report on.
Enquiry: IC50 under 50 nM? Item: CC(C)C[C@@H]1NC(=O)[C@H](Cc2ccc(O)cc2)NC(=O)[C@@H]2CCCN2C(=O)CSC[C@@H](C(=O)NCC(N)=O)NC(=O)[C@H](CC(C)C)NC(=O)[C@H](Cc2ccccc2)N(C)C(=O)[C@H](Cc2ccc(O)cc2)NC(=O)[C@H](Cc2c[nH]c3ccccc23)NC(=O)CNC(=O)[C@H](CO)NC(=O)[C@H](Cc2ccc(O)cc2)NC(=O)[C@H](C(C)C)NC1=O [Example 1067] ({CH2CO}-PYLVYSGWY[NMeF]LCG-NH2; thioether N-12)
Return: condition not met
